Numbers sourced from paper PMC6410325.

List of IC50 tested on AChE from Electrophorus electricus (electric eel) (Electrophorus electricus).
Sequence (O42275 24-633): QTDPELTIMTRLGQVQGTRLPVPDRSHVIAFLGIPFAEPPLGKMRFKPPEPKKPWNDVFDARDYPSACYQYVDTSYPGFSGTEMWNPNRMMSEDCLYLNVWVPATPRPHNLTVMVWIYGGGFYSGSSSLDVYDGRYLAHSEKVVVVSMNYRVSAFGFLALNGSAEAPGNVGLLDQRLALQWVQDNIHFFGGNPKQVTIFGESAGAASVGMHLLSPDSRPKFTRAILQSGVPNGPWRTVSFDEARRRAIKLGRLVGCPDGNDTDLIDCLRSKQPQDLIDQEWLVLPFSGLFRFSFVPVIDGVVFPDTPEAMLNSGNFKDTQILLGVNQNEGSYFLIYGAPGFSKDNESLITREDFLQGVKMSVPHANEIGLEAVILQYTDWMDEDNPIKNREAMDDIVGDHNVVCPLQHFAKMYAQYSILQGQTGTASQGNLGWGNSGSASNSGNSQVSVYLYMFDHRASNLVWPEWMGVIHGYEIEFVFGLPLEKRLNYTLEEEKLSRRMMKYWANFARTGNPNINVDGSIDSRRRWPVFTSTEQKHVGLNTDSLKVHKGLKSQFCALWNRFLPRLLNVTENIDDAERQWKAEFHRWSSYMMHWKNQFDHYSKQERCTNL
The reply should contain only the number, in µM.

Enquiry: Given the entry `Oc1cc(O)cc(Oc2c(O)cc(O)c3c2Oc2c(O)cc(Oc4c(O)cc(Oc5c(O)cc(O)c6c5Oc5c(O)cc(O)cc5O6)cc4O)cc2O3)c1` , report its measured IC50.
Return: 5.69

Enquiry: And what about the molecule `Oc1cc(O)cc(Oc2c(O)cc(O)c3c2Oc2c(cc(O)c(-c4c(O)cc5c(c4O)Oc4c(Oc6cc(O)cc(O)c6)c(O)cc(O)c4O5)c2O)O3)c1` ?
Return: 4.59

Enquiry: And what about the molecule `Oc1cc(O)cc(Oc2c(O)cc(O)c3c2Oc2c(O)cc(O)cc2O3)c1` ?
Return: 10
